test: budding yeast growth modifiers under rapamycin – strain BY4716, OD600, 96 h, primary screen (AID 1091); further: test concentration not given here; conditions: S. cerevisiae BY4716 + rapamycin, higher = more signal, called active from +8 up or from −8 down
Form field: z-score (one value per entry).

{"COMPOUND": "CC(C)N1C(=O)C[C@@](C(=O)NCCN2CCOCC2)(c2ccc([N+](=O)[O-])cc2)[C@H]1c1ccc(CO)cc1", "z-score": -1.76}
{"COMPOUND": "C=CCOC(=O)[C@H]1[C@@H]2C(=O)O[C@@H](c3ccccc3)[C@@H](c3ccccc3)N2[C@@H](c2ccc(OCCOC(=O)[C@@H]3C[C@@H]4C(=O)N[C@@H](CCCC[N+](C)(C)C)C(=O)N4[C@@H]3c3ccc(O)cc3)cc2)[C@]12C(=O)Nc1ccc(I)cc12", "z-score": 1.34}
{"COMPOUND": "C=C(CCCC)C(=O)CC[C@@H](OC(=O)c1ccccc1-c1ccccc1C(=O)O)c1ccccc1OCCO", "z-score": -1.61}
{"COMPOUND": "CCCC=C(CCC)[C@@H](NC(=O)OCC(C)C)c1ccc(C(=O)OC)cc1", "z-score": -0.894}
{"COMPOUND": "C=C(C)[C@@H]1CC=C(C(O)C2C=CC3C(=O)N(c4ccccc4)C(=O)C3N2Nc2ccc([N+](=O)[O-])cc2)CC1 (some centres not stated)", "z-score": 3.6}
{"COMPOUND": "COC(=O)[C@@]1(Cc2ccccc2)[C@H]2c3cc(C(=O)N(C)C)n(CCSC(=N)N)c3C[C@H]2CN1C(=O)c1ccccc1", "z-score": 0.102}
{"COMPOUND": "COCCOC(=O)N1C(=O)[C@@]2(c3ccccc31)[C@H](C(=O)N1CCN(c3ncccn3)CC1)[C@H]1C(=O)O[C@H](c3ccccc3)[C@H](c3ccccc3)N1[C@@H]2c1ccccc1OCCO", "z-score": 7.39}

----------
tested on: Plasmodium falciparum Sir2 (PF13_0152, Sir2A); experiment: Plasmodium falciparum Sir2A binding compounds – biochemical, small-molecule microarray, 635 nm fluorescence, primary screen (AID 1098); details: fluorescence 635 nm, higher = more signal;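 further: score merges spot fluorescence intensity with its signal-to-noise ratio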
Threshold rule: composite z-score greater than or equal to 0.7 is 1 (yes); below that, 0 (no).

{"COMPOUND": "C=CCOC(=O)[C@@H]1[C@H]2C(=O)O[C@H](c3ccccc3)[C@H](c3ccccc3)N2[C@H](c2ccc(OCCOC(=O)[C@H]3C[C@H]4C(=O)N[C@@H](CCCCN(C)C)C(=O)N4[C@H]3c3ccc(O)cc3)cc2)[C@@]12C(=O)Nc1ccc(I)cc12", "ASSIGNED CLASS": "1 (yes)"}
{"COMPOUND": "COCCOC(=O)N1C(=O)[C@@]2(c3cc(C#CCCO)ccc31)[C@H](C(N)=O)[C@H]1C(=O)O[C@H](c3ccccc3)[C@H](c3ccccc3)N1[C@@H]2c1ccccc1OCCO", "ASSIGNED CLASS": "1 (yes)"}
{"COMPOUND": "C=CCOC(=O)[C@@H]1[C@H]2C(=O)O[C@H](c3ccccc3)[C@H](c3ccccc3)N2[C@H](c2ccc(OCCOC(=O)[C@H]3C[C@H]4C(=O)N5CCC[C@H]5C(=O)N4[C@H]3c3cccc(OCCO)c3)cc2)[C@@]12C(=O)Nc1ccc(I)cc12", "ASSIGNED CLASS": "1 (yes)"}
{"COMPOUND": "C=CCC(OC(C)=O)[C@@H]1[C@@H](N(Cc2cc3ccccc3o2)C(=O)c2cccc3ccccc23)c2cc(OCCCO)ccc2N1C(=O)c1ccc2ccccc2n1 (some centres not stated)", "ASSIGNED CLASS": "0 (no)"}
{"COMPOUND": "CN(C)CCCCNC(=O)[C@H]1C[C@H]2C(=O)N3CCC[C@H]3C(=O)N2[C@H]1c1cccc(OCCO)c1", "ASSIGNED CLASS": "1 (yes)"}
{"COMPOUND": "Cc1ccccc1C(O)C1C=CC2C(=O)N(c3ccccc3)C(=O)C2N1Nc1ccccc1 (configuration not stated)", "ASSIGNED CLASS": "1 (yes)"}
{"COMPOUND": "[N-]=[N+]=Nc1ccccc1[C@@H]1OC(c2ccc(OCCCO)cc2)=N[C@]1(CCS(=O)(=O)c1ccccc1)C(=O)NCC(O)CO (some centres not stated)", "ASSIGNED CLASS": "1 (yes)"}
{"COMPOUND": "C=C(CCCC)/C(=C/C[C@H](OC(C)=O)c1cccc(OCCO)c1)c1cnc2ccccc2c1", "ASSIGNED CLASS": "1 (yes)"}
{"COMPOUND": "COc1ccc(C(O)C2C=CC3C(=O)NC(=O)C3N2Nc2ccc(Cl)cc2Cl)c2ccccc12 (configuration not stated)", "ASSIGNED CLASS": "1 (yes)"}
{"COMPOUND": "CN(C)CCCC[C@@H]1NC(=O)[C@@H]2C[C@H](C(=O)NCCCCCCNC(=O)CS)[C@H](c3ccc(O)cc3)N2C1=O", "ASSIGNED CLASS": "1 (yes)"}
{"COMPOUND": "O=C(NC1CC1)[C@@H]1c2ccccc2C(=O)N(Cc2cc(C(F)(F)F)cc(C(F)(F)F)c2)[C@H]1c1ccc(CO)cc1", "ASSIGNED CLASS": "1 (yes)"}
{"COMPOUND": "COc1ccc([Si](C)(C)[C@H]2[C@H](CC(=O)N3Cc4ccccc4C[C@H]3CO)O[C@@]3(C(=O)N(C)c4ccccc43)[C@@H]2C)cc1", "ASSIGNED CLASS": "1 (yes)"}
{"COMPOUND": "COC(=O)[C@@]1(Cc2ccccc2)[C@H]2c3cc(C(=O)N(C)C)n(CCO)c3C[C@H]2CN1C(=O)c1ccccc1", "ASSIGNED CLASS": "0 (no)"}
{"COMPOUND": "COC(=O)[C@@]1(Cc2ccccc2)[C@H]2c3cc(C(=O)N(C)C)n(CCSC(=N)N)c3C[C@H]2CN1C(=O)c1ccccc1", "ASSIGNED CLASS": "1 (yes)"}
{"COMPOUND": "CC(C)C[C@H]1NC(=O)C([C@@H](C)OCc2ccccc2)NC(=O)[C@@]23C(=O)N[C@@H](Cc4ccccc4)C2[C@H](C)[C@@]2(C)O[C@H]2C3/C=C/C/C=C\\CNC1=O (some centres not stated)", "ASSIGNED CLASS": "1 (yes)"}
{"COMPOUND": "C=CCOC(=O)[C@@H]1[C@H]2C(=O)O[C@H](c3ccccc3)[C@H](c3ccccc3)N2[C@H](c2ccc(OCCOC(=O)[C@H]3C[C@H]4C(=O)NCC(=O)N4[C@H]3c3cccc(OCCO)c3)cc2)[C@@]12C(=O)Nc1ccc(I)cc12", "ASSIGNED CLASS": "1 (yes)"}
{"COMPOUND": "CC(C)c1nc2cc(Br)ccc2c(=O)o1", "ASSIGNED CLASS": "0 (no)"}
{"COMPOUND": "CN1C(=O)C2C(C1=O)C1C=C(CCCO)C2C(C2CC2)N1Cc1cccc(OC(F)(F)F)c1 (configuration not stated)", "ASSIGNED CLASS": "1 (yes)"}
{"COMPOUND": "COC(=O)[C@@]1(Cc2ccc(F)cc2)[C@H]2c3cc(C(=O)N4CCCC4)n(Cc4cc(F)cc5c4OCOC5)c3C[C@H]2CN1C(=O)c1ccccc1", "ASSIGNED CLASS": "0 (no)"}
{"COMPOUND": "COCCCNC(=O)[C@@]1(CCS(=O)(=O)c2ccccc2)COC(c2ccc(OCCCO)cc2)=N1", "ASSIGNED CLASS": "1 (yes)"}
{"COMPOUND": "CC[C@@H]1C=C(C(=O)O)[C@H](c2ccc(OC)cc2)N1S(=O)(=O)c1ccc(C)cc1", "ASSIGNED CLASS": "1 (yes)"}
{"COMPOUND": "CC(C)(C)N1CC=CC23O[C@@H]4/C=C\\CCCOC(=O)C4[C@H]2C(=O)N(CCCO)[C@@H]3C1=O (some centres not stated)", "ASSIGNED CLASS": "1 (yes)"}
{"COMPOUND": "C=C(CCCC)/C(=C/C[C@H](OC(=O)c1ccncc1)c1ccccc1OCCO)c1cc(C(=O)OC)ccc1OC", "ASSIGNED CLASS": "0 (no)"}
{"COMPOUND": "COC(=O)C1=CC(CCCO)=CC(c2cccs2)N(Cc2cc3c(cc2Br)OCO3)C=C1C(=O)OC (configuration not stated)", "ASSIGNED CLASS": "1 (yes)"}
{"COMPOUND": "CC1=C([C@H](O)CCc2ccccc2)[C@H](CO)n2c(=O)n(-c3ccccc3)c(=O)n2C1", "ASSIGNED CLASS": "0 (no)"}
{"COMPOUND": "C=CCC(OC(C)=O)[C@@H]1[C@@H](N(Cc2cc3ccccc3o2)C(=O)Cc2ccc(OC)cc2)c2cc(OCCCO)ccc2N1C(=O)c1ccc2ccccc2n1 (some centres not stated)", "ASSIGNED CLASS": "0 (no)"}
